TESTED_ON: SARS-COV-2 RBD extracellular domain expressed with a C-terminal mouse IgG2a (SARS-CoV-2)
PROTOCOL_DETAILS: SPR Biacore, mAb captured via anti-hFc, 25 C

- BINDER: "mAb10971 (antibody, V domains shown) VH: EVQLVESGGGLIQPGGSLRLSCAASGVTVSSNYMSWVRQAPGKGLEWVSVIYSGGSTFYSDSVKGRFSISRDNSKNTLYLQMNSLRAEDTAVYYCARDLYYYGMDVWGQGTTVTVSS VL: DIQLTQSPSFLSASVGDRVTITCRASQGISTYLAWYQQKPGKAPKLLIYAASTLQSGVPSRFSGSGSGTEFTLTISSLQPEDFATYYCQQLDSYPGLTFGGGTKVEIKR"
  ENDPOINT_UNIT: "M⁻¹ s⁻¹"
  kon: "1.4e+06"
- BINDER: "mAb11004 (antibody, V domains shown) VH: QVQLVESGGGVVQPGRSLRLSCVASGFTFSIYGMDWVRQAPGKGLEWVAVISYDGSNKYYADSVKGRFTISRDNSKNTLYLQMNSLRPEDTAVYYCAKDREAAADAFDIWGQGTMVTVSS VL: DIQMTQSPSSVSASVGDRVTITCRASQGISSWLAWYQQKPGKAPKLLIYAASSLHSGVPSRFSGSGSGTDFTLTISSLQPEDFATYYCQQANSFRLTFGGGTKVEIKR"
  ENDPOINT_UNIT: "M⁻¹ s⁻¹"
  kon: 695000
- BINDER: "mAb10935 (antibody, V domains shown) VH: EVQLVESGGGLVQPGGSLRLSCAASGFTVSSNYMSWVRQAPGKGLEWVSLIYSGGSTYYADSVKGRFTISRHNSKNTLYLQMNSLRSEDTAVYYCARVPLGDYYYGMDVWGQGTTVTVSS VL: DIQMTQSPSSLSASVGDRVTITCQASQDINKYLNWYQQKPGKAPKLLIYDASNLETGVPSRFSGSGSGTDFTFTISSLQPEDIATYYCQQSDNLPLTFGGGTKVEIKR"
  ENDPOINT_UNIT: "M⁻¹ s⁻¹"
  kon: "1.35e+06"
- BINDER: "mAb10921 (antibody, V domains shown) VH: EVQLVESGGGLVQPGGSLRLSCAASGITVSSNYMSWVRQAPGKGLEWVSVIYSGGSTFYADSVKGRFTISRHNSKNTLYLQMNSLRAEDTAVYYCARERNFDAFDIWGQGTMVTVSS VL: DIQMTQSPSSVSASVGDRVTITCRASQGISSWLAWYQQKPGKAPKLLIYAASSLQSGVPSRFSGSGSGTDFTLTISSLQPEDFATYYCQQANSFPLFTFGPGTKVDIKR"
  ENDPOINT_UNIT: "M⁻¹ s⁻¹"
  kon: 266000
- BINDER: "mAb10998 (antibody, V domains shown) VH: EVQLVESGGGLVHPGGSLRLSCAASGLTVSSNYMSWVRQAPGKGLEWVSVIYSGGSTYYADSVKGRFTISRHNSKNTLFLQMNSLRAEDTAVYYCARDRPITGTTLDVWGQGTTVTVSS VL: DIQMTQSPSSLFASVGDRVTITCRASQSISSYLNWYQQKPGKAPKLLIYAASSLQSGVPSRFSGSGSGTDFTLTISSLQPEDFAFYYCQQTYSTPPITFGQGTRLEIKR"
  ENDPOINT_UNIT: "M⁻¹ s⁻¹"
  kon: "1.47e+06"
